Where do the numbers come from? From ChEMBL document CHEMBL5154644.

# test system: Phosphatidylinositol 4,5-bisphosphate 3-kinase catalytic subunit gamma isoform (Homo sapiens)
# Sequence (P48736 whole entry, canonical isoform): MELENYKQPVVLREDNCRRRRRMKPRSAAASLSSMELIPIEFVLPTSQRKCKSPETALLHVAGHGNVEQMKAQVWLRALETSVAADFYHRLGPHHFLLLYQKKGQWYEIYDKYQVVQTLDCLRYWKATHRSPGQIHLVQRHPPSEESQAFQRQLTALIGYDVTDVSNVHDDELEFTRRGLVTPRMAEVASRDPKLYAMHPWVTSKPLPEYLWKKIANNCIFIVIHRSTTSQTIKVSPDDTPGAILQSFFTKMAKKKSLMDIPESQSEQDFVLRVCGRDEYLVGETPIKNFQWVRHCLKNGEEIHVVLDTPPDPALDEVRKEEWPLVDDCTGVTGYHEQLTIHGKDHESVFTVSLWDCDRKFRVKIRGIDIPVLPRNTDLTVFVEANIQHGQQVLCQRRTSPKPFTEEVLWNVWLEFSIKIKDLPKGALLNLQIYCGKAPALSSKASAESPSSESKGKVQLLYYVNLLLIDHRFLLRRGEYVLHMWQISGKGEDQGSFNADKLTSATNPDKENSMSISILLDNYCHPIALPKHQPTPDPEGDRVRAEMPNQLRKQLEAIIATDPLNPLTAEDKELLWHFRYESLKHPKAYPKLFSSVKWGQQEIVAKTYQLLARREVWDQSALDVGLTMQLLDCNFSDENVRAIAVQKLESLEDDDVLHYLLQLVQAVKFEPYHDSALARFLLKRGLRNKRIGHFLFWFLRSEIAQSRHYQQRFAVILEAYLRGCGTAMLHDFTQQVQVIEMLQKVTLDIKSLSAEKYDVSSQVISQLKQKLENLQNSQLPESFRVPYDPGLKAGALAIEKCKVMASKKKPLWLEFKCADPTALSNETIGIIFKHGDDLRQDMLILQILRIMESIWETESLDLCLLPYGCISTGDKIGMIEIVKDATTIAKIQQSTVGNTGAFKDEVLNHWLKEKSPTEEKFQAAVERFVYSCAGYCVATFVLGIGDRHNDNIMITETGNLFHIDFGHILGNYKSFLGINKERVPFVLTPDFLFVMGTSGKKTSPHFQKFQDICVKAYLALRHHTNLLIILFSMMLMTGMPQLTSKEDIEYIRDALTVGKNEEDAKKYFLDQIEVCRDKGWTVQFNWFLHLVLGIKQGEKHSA
# protocol summary: Inhibition of PI3Kgamma (unknown origin) in […] stimulated human THP-1 cells assessed as reduction in Akt phosphorylation level at Ser473 residue preincubated for 60 mins followed by rhMCP-1 stimulation and measured after 2 mins by AlphaLisa assay
# Format: cell-based
property label: IC50 (nM)

Past entries and their recorded results:
smiles_repr=C[C@@H](C1CC1)N1Cc2cc(-c3ccn4nc(N)c(C(=O)N[C@@H](CO)C5CC5)c4n3)cc(OC(F)F)c2C1=O endpoint_result=48
smiles_repr=COc1cc(-c2ccn3nc(N)c(C(=O)NC4CC4)c3n2)cc2c1C(=O)N([C@@H](C)C1CC1)C2 endpoint_result=121
smiles_repr=C[C@@H](C1CC1)N1Cc2cc(-c3ccn4nc(N)c(C(=O)NC5CC5)c4n3)cc(S(=O)(=O)C3CCC3)c2C1=O endpoint_result=50
smiles_repr=C[C@@H](C1CC1)N1Cc2cc(-c3ccn4nc(N)c(C(=O)NC5CC5)c4n3)cc(OC(F)F)c2C1=O endpoint_result=71
smiles_repr=Cc1cc(-c2ccn3nc(N)c(C(=O)N[C@@H]4CC[C@@H](O)C4)c3n2)cc2c1C(=O)N([C@@H](C)C1CC1)C2 endpoint_result=82
smiles_repr=C[C@@H](C1CC1)N1Cc2cc(-c3ccn4nc(N)c(C(=O)NC5CC5)c4n3)cc(S(=O)(=O)C3CC3)c2C1=O endpoint_result=56
smiles_repr=Cc1cc(-c2ccn3nc(N)c(C(=O)NC4CC4)c3n2)cc2c1C(=O)N([C@@H](C)C1CC1)C2 endpoint_result=212
smiles_repr=C[C@@H](C1CC1)N1Cc2cc(-c3ccn4nc(N)c(C(=O)NC5CC5)c4n3)cc(OC(F)(F)F)c2C1=O endpoint_result=58
smiles_repr=CC[C@H](N1Cc2cc(-c3ccn4nc(N)c(C(=O)NC5CC5)c4n3)cc(NS(C)(=O)=O)c2C1=O)C(F)(F)F endpoint_result=31
smiles_repr=CC(C)c1cc(-c2ccn3nc(N)c(C(=O)NC4CC4)c3n2)cc2c1C(=O)N([C@@H](C)C1CC1)C2 endpoint_result=54

I. C[C@@H](C1CC1)N1Cc2cc(-c3ccn4nc(N)c(C(=O)N[C@H]5CC[C@@](C)(O)CC5)c4n3)cc(OC(F)F)c2C1=O
II. CCS(=O)(=O)c1cc(-c2ccn3nc(N)c(C(=O)NC4CC4)c3n2)cc2c1C(=O)N([C@@H](C)C1CC1)C2
III. Cc1cc(-c2ccn3nc(N)c(C(=O)N[C@H]4CCOC4)c3n2)cc2c1C(=O)N([C@@H](C)C1CC1)C2
Problem: Form: Sort by [IC50] Order [ ascending ] Give the order by naming the labels one after another as requested.
Solution: I, II, III

====

# test system: Phosphatidylinositol 4,5-bisphosphate 3-kinase catalytic subunit delta isoform (Homo sapiens, UniProt O00329)
# Sequence (O00329 whole entry, canonical isoform): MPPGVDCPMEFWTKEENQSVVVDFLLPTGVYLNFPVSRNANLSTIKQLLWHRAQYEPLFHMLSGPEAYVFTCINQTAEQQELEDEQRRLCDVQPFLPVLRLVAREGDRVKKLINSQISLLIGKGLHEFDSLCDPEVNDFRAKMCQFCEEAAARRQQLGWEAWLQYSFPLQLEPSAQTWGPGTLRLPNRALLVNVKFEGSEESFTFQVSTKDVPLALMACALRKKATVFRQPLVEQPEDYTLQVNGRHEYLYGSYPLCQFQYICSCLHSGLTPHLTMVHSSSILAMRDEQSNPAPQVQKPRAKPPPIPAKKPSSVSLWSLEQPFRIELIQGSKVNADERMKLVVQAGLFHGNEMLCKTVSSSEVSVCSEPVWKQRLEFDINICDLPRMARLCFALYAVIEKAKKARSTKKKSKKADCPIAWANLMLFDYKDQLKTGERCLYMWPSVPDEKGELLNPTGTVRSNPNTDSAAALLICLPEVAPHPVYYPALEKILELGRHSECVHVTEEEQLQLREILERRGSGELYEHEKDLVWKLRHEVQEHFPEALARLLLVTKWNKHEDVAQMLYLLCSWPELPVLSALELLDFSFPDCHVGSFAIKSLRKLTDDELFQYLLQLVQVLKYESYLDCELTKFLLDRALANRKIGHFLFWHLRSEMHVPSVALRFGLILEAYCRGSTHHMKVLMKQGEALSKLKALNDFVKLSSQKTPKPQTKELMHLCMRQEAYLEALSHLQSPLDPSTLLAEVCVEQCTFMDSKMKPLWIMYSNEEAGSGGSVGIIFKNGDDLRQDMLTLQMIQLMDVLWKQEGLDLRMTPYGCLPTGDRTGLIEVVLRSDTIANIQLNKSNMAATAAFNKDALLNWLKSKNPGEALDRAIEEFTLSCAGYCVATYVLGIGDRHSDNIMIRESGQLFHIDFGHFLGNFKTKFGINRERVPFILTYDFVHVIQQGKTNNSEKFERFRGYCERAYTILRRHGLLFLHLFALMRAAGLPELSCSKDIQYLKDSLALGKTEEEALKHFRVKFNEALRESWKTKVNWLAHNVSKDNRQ
# protocol summary: Inhibition of PI3Kdelta (unknown origin) using PIP2 as substrate preincubated for 1 hr followed by substrate addition and measured after 60 mins in presence of ATP by ADP-glo assay
property label: IC50 (nM)

smiles_repr=Cc1cc(-c2ccn3nc(N)c(C(=O)N[C@H]4CC[C@H](N)CC4)c3n2)cc2c1C(=O)N([C@@H](C)C1CC1)C2 measurement_units=nM endpoint_result=4530
smiles_repr=CC(C)c1cc(-c2ccn3nc(N)c(C(=O)NC4CC4)c3n2)cc2c1C(=O)N([C@@H](C)C1CC1)C2 measurement_units=nM endpoint_result=1480
smiles_repr=C[C@@H](C1CC1)N1Cc2cc(-c3ccn4nc(N)c(C(=O)N[C@H]5CC[C@](C)(O)CC5)c4n3)cc(NS(C)(=O)=O)c2C1=O measurement_units=nM endpoint_result=268
smiles_repr=C[C@H](N1Cc2cc(-c3ccn4nc(N)c(C(=O)N[C@@H](CO)C5CC5)c4n3)cc(NS(C)(=O)=O)c2C1=O)C(F)(F)F measurement_units=nM endpoint_result=825
smiles_repr=Cc1cc(-c2ccn3nc(N)c(C(=O)N[C@@H]4CC[C@@H](O)C4)c3n2)cc2c1C(=O)N([C@@H](C)C1CC1)C2 measurement_units=nM endpoint_result=123
smiles_repr=C[C@@H](C1CC1)N1Cc2cc(-c3ccn4nc(N)c(C(=O)N[C@@H](CO)C5CC5)c4n3)cc(OC(F)(F)F)c2C1=O measurement_units=nM endpoint_result=1790
smiles_repr=CCN1Cc2cc(-c3ccn4nc(N)c(C(=O)NC5CC5)c4n3)cc(C)c2C1=O measurement_units=nM endpoint_result=179
smiles_repr=Cc1cc(-c2ccn3nc(N)c(C(=O)N[C@H]4CC[C@H](C(=O)O)CC4)c3n2)cc2c1C(=O)N([C@@H](C)C1CC1)C2 measurement_units=nM endpoint_result=20
smiles_repr=C[C@@H](C1CC1)N1Cc2cc(-c3ccn4nc(N)c(C(=O)NC5CC5)c4n3)cc(C3CC3)c2C1=O measurement_units=nM endpoint_result=829
smiles_repr=C[C@H](N1Cc2cc(-c3ccn4nc(N)c(C(=O)N[C@H]5CC[C@@](C)(O)CC5)c4n3)cc(NS(C)(=O)=O)c2C1=O)C(F)(F)F measurement_units=nM endpoint_result=146

1. Cc1cc(-c2ccn3nc(N)c(C(=O)NC4CC4)c3n2)cc2c1C(=O)N(CC1CC1)C2
2. CC[C@H](N1Cc2cc(-c3ccn4nc(N)c(C(=O)NC5CC5)c4n3)cc(NS(C)(=O)=O)c2C1=O)C(F)(F)F
Problem: Between 1 and 2 , which one shows the larger IC50 value? Could you answer with the label of the item you picked?
Solution: 2
